Hey, just so you know, these numbers are from patent US20230219965A1.

What IC50 was measured for each of the following?
# system: USP1/UAF1 enzyme (Homo sapiens, UniProt O94782)
# Sequence (O94782 whole entry): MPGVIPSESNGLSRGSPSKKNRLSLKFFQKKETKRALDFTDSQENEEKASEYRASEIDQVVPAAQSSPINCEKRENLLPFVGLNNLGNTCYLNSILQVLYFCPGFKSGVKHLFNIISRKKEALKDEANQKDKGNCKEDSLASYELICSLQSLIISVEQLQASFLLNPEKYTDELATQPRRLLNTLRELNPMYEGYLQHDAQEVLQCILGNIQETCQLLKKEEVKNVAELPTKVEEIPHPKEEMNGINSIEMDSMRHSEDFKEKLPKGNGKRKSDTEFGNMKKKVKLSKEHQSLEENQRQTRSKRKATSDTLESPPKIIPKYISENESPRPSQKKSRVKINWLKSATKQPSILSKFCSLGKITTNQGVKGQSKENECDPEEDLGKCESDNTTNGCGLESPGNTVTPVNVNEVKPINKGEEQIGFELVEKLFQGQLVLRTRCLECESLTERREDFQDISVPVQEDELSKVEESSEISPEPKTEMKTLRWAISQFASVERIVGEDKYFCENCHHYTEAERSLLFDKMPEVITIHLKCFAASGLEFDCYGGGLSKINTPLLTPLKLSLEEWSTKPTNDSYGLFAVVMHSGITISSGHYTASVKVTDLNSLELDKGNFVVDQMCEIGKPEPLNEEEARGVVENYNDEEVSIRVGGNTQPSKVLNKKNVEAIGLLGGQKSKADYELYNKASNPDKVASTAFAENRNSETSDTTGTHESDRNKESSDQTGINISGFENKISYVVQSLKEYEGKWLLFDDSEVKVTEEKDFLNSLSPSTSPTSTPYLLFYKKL
# Sequence (Q8TAF3 whole entry partner): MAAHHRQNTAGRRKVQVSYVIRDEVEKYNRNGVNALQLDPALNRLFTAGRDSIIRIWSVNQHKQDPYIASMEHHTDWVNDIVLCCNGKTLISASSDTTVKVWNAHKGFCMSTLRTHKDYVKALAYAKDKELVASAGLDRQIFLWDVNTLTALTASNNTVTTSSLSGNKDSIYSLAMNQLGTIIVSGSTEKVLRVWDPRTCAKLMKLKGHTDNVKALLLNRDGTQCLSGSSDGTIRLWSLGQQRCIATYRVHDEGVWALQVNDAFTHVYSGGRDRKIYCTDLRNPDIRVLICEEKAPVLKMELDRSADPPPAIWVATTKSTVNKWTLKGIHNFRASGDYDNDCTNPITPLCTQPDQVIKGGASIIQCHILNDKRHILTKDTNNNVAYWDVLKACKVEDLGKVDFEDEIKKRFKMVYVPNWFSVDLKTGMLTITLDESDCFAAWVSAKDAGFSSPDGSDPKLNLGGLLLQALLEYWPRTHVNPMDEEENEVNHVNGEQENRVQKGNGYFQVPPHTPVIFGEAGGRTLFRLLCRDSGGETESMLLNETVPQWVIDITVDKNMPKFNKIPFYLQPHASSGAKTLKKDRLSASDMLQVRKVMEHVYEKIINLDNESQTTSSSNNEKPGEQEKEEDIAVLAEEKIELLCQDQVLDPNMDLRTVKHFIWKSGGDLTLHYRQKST
# assay-method-text: USP1/UAF1 deubiquitination assay (ubiquitin-rhodamine 110 substrate)
# Format: biochemical
# condition-info: read-out: USP1 IC50 (Ub-Rho)

{"molecule": "CCn1cc(C(F)(F)F)nc1-c1ccc(CN2C(=O)CCn3nc(-c4c(C(F)F)cnn4C(C)C)cc32)cc1F", "IC50": "0.1 to 0.5 µM"}
{"molecule": "CCn1cc(C(F)(F)F)nc1-c1ccc(NC2CCCn3nc(-c4c(Cl)cnn4C(C)C)cc32)cc1 (stereo not shown)", "IC50": "< 0.1 µM"}
{"molecule": "COc1ncnc(C2CC2)c1-c1cc2n(n1)CCCN2Cc1ccc(-c2nc(C(F)(F)F)cn2C)cc1", "IC50": "< 0.1 µM"}

Proceeding to the next molecule to report its IC50.
Incoming: What value of IC50 has been reported for the following molecule? COc1ccnn1-c1ccc(CN2C(=O)CCn3nc(-c4c(Cl)cnn4C(C)C)cc32)cc1
Outgoing: 0.1 to 0.5 µM

====

# assay-method-text: ADME solubility determination in PBS at pH 2.0 and pH 7.4
# Type: physicochemical
# condition-info: phosphate buffered saline, 25 °C, pH 2, aqueous buffer, thermodynamic from solid, PBS pH 2.0, 25° C., read-out: Solubility at pH 2.0
Provide the reported solubility at 24 h of each item.

{"molecule": "CC(C)n1cc(C(F)(F)F)nc1-c1ccc([C@H](C)N2C(=O)CCn3nc(-c4c(Cl)cnn4C(C)C)nc32)cc1", "solubility at 24 h": "< 10 µM"}
{"molecule": "Cc1cnn(C(C)C)c1-c1nc2n(n1)CCC(=O)N2Cc1ccc(-c2nc(C(F)(F)F)cn2C)cc1", "solubility at 24 h": "< 10 µM"}

Fill in solubility at 24 h for each of the 3 molecules listed.
1. COc1cc(CN2C(=O)CCn3nc(-c4c(Cl)cnn4C(C)C)cc32)ccc1-c1nc(C(F)(F)F)cn1C(C)C
2. CCn1cc(C(F)(F)F)nc1-c1c(Cl)cc(CN2C(=O)CCn3nc(-c4c(OC)ncnc4C4CC4)cc32)cc1OC
3. COc1ncnc(C2CC2)c1-c1cc2n(n1)CCC(=O)N2Cc1ccc(-c2nc(C(F)(F)F)cn2C(C)C)cc1

Outgoing:
1. < 10 µM
2. < 10 µM
3. < 10 µM

Hi! Can you tell me solubility at 24 h for each of these molecules?
1. CCn1cc(C(F)(F)F)nc1-c1ccc([C@@H](C)n2c(=O)ccn3nc(-c4c(OC)ncnc4C4CC4)nc23)cc1F
2. CCn1cc(C(F)(F)F)nc1-c1ccc(NC2CCCn3nc(-c4c(Cl)cnn4C(C)C)cc32)cn1 (centres unmarked)

Outgoing:
1: ≥ 10 µM; 2: < 10 µM

Quick one: give me solubility at 24 h for each item below, same order please.
1. COc1ncnc(C2CC2)c1-c1nc2n(n1)CCC(=O)N2[C@H](C)c1ccc(-c2nc(C(F)(F)F)cn2C(C)C)c(F)c1
2. CCn1cc(C(F)(F)F)nc1-c1ccc([C@@H](C)N2C(=O)CCn3nc(-c4c(Cl)cnn4C(C)C)nc32)cc1OC
3. Cc1cnn(C(C)C)c1-c1cc2n(n1)CCCN2Cc1ccc(-c2nc(C(F)(F)F)nn2C)cc1
4. COc1ncnc(C2CC2)c1-c1nc2n(n1)CCC(=O)N2[C@@H](C)c1ccc(-n2nc(C(F)(F)F)cc2C)c(F)c1
5. COc1cc(CN2C(=O)CCn3nc(-c4c(OC)ncnc4C4CC4)cc32)cc(F)c1-c1nc(C(F)(F)F)cn1C(C)C
6. CCn1cc(C(F)(F)F)nc1-c1ccc(CN2C(=O)C(N(C)C)Cn3nc(-c4c(Cl)cnn4C(C)C)cc32)cc1 (centres unmarked)

Outgoing:
["≥ 10 µM", "< 10 µM", "< 10 µM", "≥ 10 µM", "≥ 10 µM", "≥ 10 µM"]

Incoming: Any idea what its solubility at 24 h is? The molecule is COc1cccc(C)c1-c1cc2n(n1)CCC(=O)N2Cc1ccc(-c2nc(C(F)(F)F)cn2C)cc1
Outgoing: ≥ 10 µM

====

For each entry below, report its half-life at 1 μM value.
# assay-method-text: Liver microsomal metabolic stability, rat liver microsomes (RLM)
# condition-info: rat, liver microsomes, t1/2 (min) in RLM, 1 μM compound, 1 mg/mL microsomes, NADPH

Here's what some known entries look like.
{"compound": "CCn1cc(C(F)(F)F)nc1-c1ccc(CN2C(=O)CCn3nc(-c4c(Cl)cnn4C(C)C)cc32)cn1 [Example 111]", "value-kind": "half-life at 1 μM", "data-value": "> 25 min"}
{"compound": "COc1ncnc(C2CC2)c1-c1nc2n(n1)CCC(=O)N2[C@H](C)c1ccc(-n2nc(C(F)(F)F)cc2C)c(F)c1 [Example 204]", "value-kind": "half-life at 1 μM", "data-value": "> 25 min"}

API: the following record is the query input.
Incoming: Data request, read-out half-life at 1 μM, for CCn1cc(C(F)(F)F)nc1-c1ccc(CN2c3cc(-c4c(OC)ncnc4C4CC4)nn3CCC2C)cc1F (stereo not drawn) [Example 49]
Outgoing: < 25 min

====

Assignment: determine reported half-life at 1 μM for the given molecules.
# assay-method-text: Liver microsomal metabolic stability, human liver microsomes (HLM)
# condition-info: human, liver microsomes

Example entries begin here.
{"molecule": "COc1ncnc(C2CC2)c1-c1nc2n(n1)CCC(=O)N2Cc1ccc(-c2nc(C(F)(F)F)cn2C(C)C)c(F)c1OC [Example 210]", "data-value": "> 25 min"}
{"molecule": "Cc1cnn(C(C)C)c1-c1nn2c(c1Cl)N(Cc1ccc(-c3nc(C(F)(F)F)cn3C)cc1)C(=O)CC2 [Example 34]", "data-value": "< 25 min"}
{"molecule": "COc1ncnc(C2CC2)c1-c1cc2n(n1)CCC(=O)N2Cc1ccc(-c2nc(C(F)(F)F)cn2C(C)C)c(F)c1 [Example 18]", "data-value": "> 25 min"}
{"molecule": "CCn1cc(C(F)(F)F)nc1-c1ccc(CN2C(=O)CCn3nc(-c4c(OC)ncnc4C4CC4)nc32)cc1Cl [Example 175]", "data-value": "> 25 min"}
{"molecule": "CCn1cc(C(F)(F)F)nc1-c1c(F)cc(CN2C(=O)CCn3nc(-c4c(OC)ncnc4C4CC4)nc32)cc1OC [Example 176]", "data-value": "> 25 min"}

Please supply half-life at 1 μM for each of the following items, keeping them in order.
1. CCn1cc(C(F)(F)F)nc1-c1ccc([C@@H](C)N2C(=O)CCn3nc(-c4c(Cl)cnn4C(C)C)nc32)cc1 [Example 194]
2. Cc1cnn(C(C)C)c1-c1nc2n(n1)CCCN2Cc1ccc(-c2nc(C(F)(F)F)cn2C)cc1 [Example 221]

Outgoing:
["< 25 min", "< 25 min"]

Provide half-life at 1 μM values for the following items, in order.
1. CCn1cc(C(F)(F)F)nc1-c1ccc(N[C@@H]2CCCn3nc(-c4c(Cl)cnn4C(C)C)cc32)cc1 (single isomer, unassigned) [Example 238]
2. COc1ccc(C(F)(F)F)nc1-c1ccc(CN2C(=O)CCn3nc(-c4c(Cl)cnn4C(C)C)cc32)cc1Cl [Example 294]
3. CCn1cc(C(F)(F)F)nc1-c1ccc(Cn2c(=O)ccn3nc(-c4c(OC)ncnc4C4CC4)cc23)cc1 [Example 332]
4. CCn1cc(C(F)(F)F)nc1-c1ccc(C(C)N2C(=O)CCn3nc(-c4c(OC)ncnc4C4CC4)cc32)cc1F (centres unmarked) [Example 120]
5. Cc1cc(C(F)(F)F)nn1-c1ccc(CN2C(=O)CCn3nc(-c4c(Cl)cnn4C(C)C)cc32)cc1 [Example 86]
6. CCn1cc(C(F)(F)F)nc1-c1ccc([C@H](C)N2C(=O)CCn3nc(-c4c(OC)ncnc4C4CC4)cc32)cc1 [Example 124]

Outgoing:
1: > 25 min; 2: > 25 min; 3: > 25 min; 4: > 25 min; 5: > 25 min; 6: < 25 min

Incoming: Looking for the measured half-life at 1 μM of COc1cc([C@@H](C)N2C(=O)CCn3nc(-c4c(OC)ncnc4C4CC4)cc32)ccc1-c1nc(C(F)(F)F)cn1C(C)C [Example 129] , can you help?
Outgoing: > 25 min

====

Record form. Attribute: solubility at 24 h. Fill in for each entry.
# assay-method-text: ADME solubility determination in PBS at pH 2.0 and pH 7.4
# Format: physicochemical
# condition-info: phosphate buffered saline, 25 °C, pH 2, aqueous buffer, thermodynamic from solid, PBS pH 2.0, 25° C., read-out: Solubility at pH 2.0

Worked cases, solubility at 24 h given:
{"molecule": "COCCOc1cc(CN2C(=O)CCn3nc(-c4c(Cl)cnn4C(C)C)nc32)ccc1-c1nc(C(F)(F)F)cn1C(C)C [Example 167]", "solubility at 24 h": "< 10 µM"}
{"molecule": "CCn1cc(C(F)(F)F)nc1-c1ccc([C@H](C)n2c(=O)ccn3nc(-c4c(OC)ncnc4C4CC4)cc23)cc1 [Example 336]", "solubility at 24 h": "≥ 10 µM"}
{"molecule": "CCn1cc(C(F)(F)F)nc1-c1ccc(CN2c3cc(-c4c(OC)ncnc4C4CC4)nn3CCC2C)cc1F (stereo not shown) [Example 49]", "solubility at 24 h": "≥ 10 µM"}

Below are some molecules; for each one, tell me its solubility at 24 h.
1. COc1ncnc(C2CC2)c1-c1cc2n(n1)CCC(=O)N2Cc1ccc(-n2nc(C(F)(F)F)cc2OC)cc1 [Example 80]
2. CC(C)n1ncc(Cl)c1-c1cc2n(n1)CCC(=O)N2Cc1ccc(-c2cn(C)c(C(F)(F)F)n2)c(F)c1 [Example 130]
3. CCn1cc(C(F)(F)F)nc1-c1ccc(CN2C(=O)CCn3nc(-c4c(Cl)cnn4C(C)C)cc32)cc1F [Example 77]
4. CCn1cc(C(F)(F)F)nc1-c1ccc(CN2C(=O)C(NC)Cn3nc(-c4c(Cl)cnn4C(C)C)cc32)cc1 (stereo not shown) [Example 236]

Outgoing:
["< 10 µM", "< 10 µM", "< 10 µM", "≥ 10 µM"]
